# self-cleavage values compiled below
B1: Hairpin Ribozyme (parent)
chain: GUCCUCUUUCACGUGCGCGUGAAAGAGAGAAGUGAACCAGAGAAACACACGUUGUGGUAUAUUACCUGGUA

variants of: B1; test: self-cleavage, relative activity (ratio to wild type); higher = more cleavage; co-transcriptional
Quick one: just the number, no unit, thanks!

Need self-cleavage, item GUCCUCUUUCACGUGCGCGUUAAAGAGAGAAGUGAACCAGAGAAACACACGUUGUGGUCUAUUACCUGGUA [G21U A59C]
0.148

Name the recorded self-cleavage for GUCCUCUUUCACGUGCGAGUGAAAGAGAGAAGUGAACAAGAGAAACACACGUUGUGGUAUAUUACCUGGUA [C18A C38A] .
0.132
